meta.source: patent US20170081400A1

target: T1, human TL1A extracellular domain with N-terminal HIS and FLAG tag (human) (UniProt O95150)
T1 sequence: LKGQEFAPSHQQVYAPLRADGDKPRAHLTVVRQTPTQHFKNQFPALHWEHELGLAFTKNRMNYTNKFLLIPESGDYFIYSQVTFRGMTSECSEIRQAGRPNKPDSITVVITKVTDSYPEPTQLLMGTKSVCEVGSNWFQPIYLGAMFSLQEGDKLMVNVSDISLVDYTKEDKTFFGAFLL
method: cell-based or functional assay
measure: Fold improvement over 320-179, TL1A induced caspase potency assay in TF-1 cells (fold)
Reply numerically in fold, unit not repeated.

Query: Bench note: what Fold improvement over 320-179, TL1A induced caspase potency assay in TF-1 cells did 320-219 (antibody, human IgG1, name in Kabat numbering, V domains shown, human IgG1, lambda) VH: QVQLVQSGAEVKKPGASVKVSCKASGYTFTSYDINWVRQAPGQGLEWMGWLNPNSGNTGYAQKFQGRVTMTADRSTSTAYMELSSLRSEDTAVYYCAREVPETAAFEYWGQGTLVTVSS VL: QSVLTQPPSVSGAPGQRVTISCTSSDSDIGAGLGVHWYQQLPGTAPKLLIEGYYNRPSGVPDRFSGSKSGTSASLTITGLLPEDEGDYYCQSYDGTLSALFGGGTKLTVLG show?
Reply: 2

Query: Bench note: what Fold improvement over 320-179, TL1A induced caspase potency assay in TF-1 cells did 320-187 (antibody, human IgG1, name in Kabat numbering, V domains shown, human IgG1, lambda) VH: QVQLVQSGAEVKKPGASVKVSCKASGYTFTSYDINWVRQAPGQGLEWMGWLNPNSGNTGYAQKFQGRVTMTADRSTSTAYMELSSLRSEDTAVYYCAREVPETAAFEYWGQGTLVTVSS VL: QSVLTQPPSVSGAPGQRVTISCTSSSSDIGAGLGVHWYQQLPGTAPKLLIEGYYNRPSGVPDRFSGSKSGTSASLTITGLDPEDEGDYYCQSYDGTLSALFGGGTKLTVLG show?
Reply: 2

Query: Bench note: what Fold improvement over 320-179, TL1A induced caspase potency assay in TF-1 cells did 320-326 (antibody, human IgG1, name in Kabat numbering, V domains shown, human IgG1, lambda) VH: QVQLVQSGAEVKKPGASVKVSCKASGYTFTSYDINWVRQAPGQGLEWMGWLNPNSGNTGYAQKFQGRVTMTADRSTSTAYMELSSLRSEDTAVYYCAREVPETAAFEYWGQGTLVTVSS VL: QSVLTQPPSVSGAPGQRVTISCTSSSSDIGAGLGVHWYQQLPGTAPKLLIEGYYNRPSGVPDRFSGSKSGTSASLTITGLLPEDEGDYYCQSSDGTLSALFGGGTKLTVLG show?
Reply: 2
